meta.source: patent US9475815B2

molecular target: human FGFR-1 (Homo sapiens); assay: FGFR-1 high ATP kinase assay (TR-FRET)
Sequence (P11362 22-822 limits assumed): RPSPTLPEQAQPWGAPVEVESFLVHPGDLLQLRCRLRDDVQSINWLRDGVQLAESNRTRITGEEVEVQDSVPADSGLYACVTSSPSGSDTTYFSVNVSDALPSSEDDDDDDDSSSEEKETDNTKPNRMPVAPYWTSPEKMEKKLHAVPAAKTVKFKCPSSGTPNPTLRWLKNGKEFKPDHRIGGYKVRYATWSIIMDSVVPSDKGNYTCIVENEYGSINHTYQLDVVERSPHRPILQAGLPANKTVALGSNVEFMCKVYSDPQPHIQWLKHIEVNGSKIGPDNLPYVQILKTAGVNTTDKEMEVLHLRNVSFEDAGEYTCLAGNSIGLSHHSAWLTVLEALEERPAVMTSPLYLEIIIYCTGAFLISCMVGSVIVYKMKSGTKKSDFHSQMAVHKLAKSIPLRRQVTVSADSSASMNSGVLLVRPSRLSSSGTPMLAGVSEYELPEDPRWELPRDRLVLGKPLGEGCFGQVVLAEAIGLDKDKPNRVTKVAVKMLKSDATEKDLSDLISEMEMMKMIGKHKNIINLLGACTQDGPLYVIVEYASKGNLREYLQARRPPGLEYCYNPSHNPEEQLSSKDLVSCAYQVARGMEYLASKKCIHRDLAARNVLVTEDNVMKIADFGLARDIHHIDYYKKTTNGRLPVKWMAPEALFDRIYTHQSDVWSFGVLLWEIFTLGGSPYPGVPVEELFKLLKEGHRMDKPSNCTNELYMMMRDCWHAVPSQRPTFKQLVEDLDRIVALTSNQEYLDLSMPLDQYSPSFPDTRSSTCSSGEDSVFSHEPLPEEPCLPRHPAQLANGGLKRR
Where a name gives a salt, the structure may show the parent alone.
Please go through the items and note down their pIC50.
Please note pIC50 is a logarithmic value: minus log10 of concentration in mol/L. Answer with that number alone.

Which pIC50 value is on record for COc1cc(C)cc2cc(-c3cc(CN4CCC(N5CCCC5)C4)n4ncnc(N)c34)sc12 (stereo not shown) ?
7.40

Consider next the molecule COc1cc(C)cc2cc(-c3cc(CN4CCOCC4)n4ncnc(N)c34)sc12 in the same way.
7.02

// same read-out, input: COc1cc(C)cc2cc(-c3cc(CN4CCNC(C(C)(C)C)C4)n4ncnc(N)c34)sc12 (stereo not shown)
7.23

For COc1cc(C)cc2cc(-c3cc(CN4CCCC(N(C)C)C4)n4ncnc(N)c34)sc12 (stereo not shown) then?
8.34

Repeat with CCNC(=O)COCc1cc(-c2cc3cc(C)cc(OC)c3s2)c2c(N)ncnn12
7.19

Check COc1cc(C)cc2cc(-c3cc(CN4CC[C@](C)(N)C4)n4ncnc(N)c34)sc12 [Example 5, trihydrochloride] too.
8.96

Request: COc1cc(C)cc2cc(-c3cc(CN4CCCC4c4ccc(C)cc4)n4ncnc(N)c34)sc12 (stereo not shown)
7.03

And COc1cc(C)cc2cc(-c3cc(COCCNC(C)C)n4ncnc(N)c34)sc12 ?
7.10

Queued: COc1cc(C)cc2cc(-c3cc(COC[C@H]4CCCN4)n4ncnc(N)c34)sc12
7.29

// repeat for COc1cc(C)cc2cc(-c3cc(CN[C@@H]4CCNC4=O)n4ncnc(N)c34)sc12 [Example 6, dihydrochloride] and report
7.70
